Molecular target: T1, human TL1A (human, UniProt O95150 72-251, limits assumed)
T1 construct: also called tumor necrosis factor-like cytokine 1A; TNFSF15
T1 sequence (looked up): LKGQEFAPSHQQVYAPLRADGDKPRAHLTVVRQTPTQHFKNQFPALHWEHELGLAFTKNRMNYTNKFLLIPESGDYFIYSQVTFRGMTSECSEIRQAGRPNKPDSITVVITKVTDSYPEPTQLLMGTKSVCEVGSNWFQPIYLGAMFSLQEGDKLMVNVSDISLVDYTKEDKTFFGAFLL
Assay: ELISA titration on plate-coated human TL1A, unpurified culture supernatant
measured.quantity: Kd (pM)
Hi! Could you send only the number? It should be in pM, unit omitted.

Example results:
A198 (antibody, IgG1, V domains shown) VH: EVQLVQSGAEVKKPGASVKVSCKASGFDIQDTYMHWVRQAPGQGLEWMGRIEPASGHIKYDPKFQGRVTMTRDTSTSTAYMELSSLRSEDTAVYYCARSGGLPDWWGQGTTVTVSS VL: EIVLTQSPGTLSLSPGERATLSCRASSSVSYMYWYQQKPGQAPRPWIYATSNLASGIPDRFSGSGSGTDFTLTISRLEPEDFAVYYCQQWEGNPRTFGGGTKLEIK | 53
A206 (antibody, IgG1, V domains shown) VH: EVQLVQSGAEVKKPGASVKVSCKASGFDIQDTYMHWVRQRPGQGLEWIGRIDPASGHTKYDPKFQVRATITTDTSTSTAYLELSSLRSEDTAVYYCARSGGLPDVWGQGTTVTVSS VL: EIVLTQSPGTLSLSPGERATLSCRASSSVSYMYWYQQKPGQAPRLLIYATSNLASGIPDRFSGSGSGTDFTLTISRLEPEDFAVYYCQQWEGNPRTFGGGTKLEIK | 50
A166 (antibody, IgG1, V domains shown) VH: QVQLVQSGAEVKKPGASVKVSCKASGFDIQDTYMHWVKQRPGQGLEWIGRIDPASGHTKYDPKFQVRVTMTTDTSTSTAYLELSSLRSEDTAVYYCARSGGLPDVWGQGTTVTVSS VL: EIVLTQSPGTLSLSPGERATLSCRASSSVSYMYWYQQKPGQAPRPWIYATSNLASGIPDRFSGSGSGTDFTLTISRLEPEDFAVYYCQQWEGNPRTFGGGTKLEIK | 57
A205 (antibody, IgG1, V domains shown) VH: EVQLVQSGAEVKKPGASVKVSCKASGFDIQDTYMHWVKQRPGQGLEWIGRIDPASGHTKYDPKFQVRATITTDTSTSTAYLELSSLRSEDTAVYYCARSGGLPDVWGQGTTVTVSS VL: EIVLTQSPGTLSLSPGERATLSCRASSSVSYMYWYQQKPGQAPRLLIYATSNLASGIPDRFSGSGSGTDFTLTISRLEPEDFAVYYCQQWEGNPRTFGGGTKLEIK | 55

Find the recorded Kd belonging to A179 (antibody, IgG1, V domains shown) VH: QVQLVQSGAEVKKPGASVKVSCKASGFDIQDTYMHWVKQAPGQGLEWMGRIEPASGHIKYDPKFQGRATMTRDTSTSTVYMELSSLRSEDTAVYYCARSGGLPDWWGQGTTVTVSS VL: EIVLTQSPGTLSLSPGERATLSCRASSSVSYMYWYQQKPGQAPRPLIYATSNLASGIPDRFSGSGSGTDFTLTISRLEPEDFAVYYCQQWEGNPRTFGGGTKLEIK and report it.
79

// next record A168 (antibody, IgG1, V domains shown) VH: QVQLVQSGAEVKKPGASVKVSCKASGFDIQDTYMHWVKQRPGQGLEWIGRIDPASGHTKYDPKFQVRATMTRDTSTSTAYLELSSLRSEDTAVYYCARSGGLPDVWGQGTTVTVSS VL: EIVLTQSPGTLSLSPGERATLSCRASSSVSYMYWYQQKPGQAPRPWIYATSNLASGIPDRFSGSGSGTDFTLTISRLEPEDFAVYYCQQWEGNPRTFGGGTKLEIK
62

// next record A222 (antibody, IgG1, V domains shown) VH: QVQLVQSGAEVKKPGASVKVSCKASGFDIQDTYMHWVKQRPGQGLEWMGRIDPASGHTKYDPKFQVRVTITRDTSTSTAYLELSSLRSEDTAVYYCARSGGLPDVWGQGTTVTVSS VL: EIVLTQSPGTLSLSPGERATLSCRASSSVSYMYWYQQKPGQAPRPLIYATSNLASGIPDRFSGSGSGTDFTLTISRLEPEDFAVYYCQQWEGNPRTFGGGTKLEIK
60

// next record A212 (antibody, IgG1, V domains shown) VH: QVQLVQSGAEVKKPGASVKVSCKASGFDIQDTYMHWVRQRPGQGLEWIGRIDPASGHTKYDPKFQVRATITTDTSTSTAYLELSSLRSEDTAVYYCARSGGLPDVWGQGTTVTVSS VL: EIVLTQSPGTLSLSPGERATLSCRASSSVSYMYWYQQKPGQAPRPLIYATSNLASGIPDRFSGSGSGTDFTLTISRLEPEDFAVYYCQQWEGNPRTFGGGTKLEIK
50

// next record A181 (antibody, IgG1, V domains shown) VH: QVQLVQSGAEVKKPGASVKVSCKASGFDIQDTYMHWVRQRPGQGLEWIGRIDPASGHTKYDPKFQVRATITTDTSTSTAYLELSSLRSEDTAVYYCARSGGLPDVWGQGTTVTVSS VL: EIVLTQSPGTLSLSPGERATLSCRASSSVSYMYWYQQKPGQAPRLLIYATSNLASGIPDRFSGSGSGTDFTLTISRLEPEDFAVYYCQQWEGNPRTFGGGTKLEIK
60

// next record A161 (antibody, IgG1, V domains shown) VH: QVQLVQSGAEVKKPGASVKVSCKASGFDIQDTYMHWVRQRPGQGLEWMGRIDPASGHTKYDPKFQVRVTITTDTSTSTVYLELSSLRSEDTAVYYCARSGGLPDVWGQGTTVTVSS VL: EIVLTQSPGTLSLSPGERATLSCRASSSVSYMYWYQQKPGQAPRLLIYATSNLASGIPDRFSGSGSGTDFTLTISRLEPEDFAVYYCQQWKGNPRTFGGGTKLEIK
72
